Parameter apparent KD of MS2 coat protein: see the listing below.
# Test system: MS2 coat protein
# Protocol details: apparent KD of MS2 coat protein; higher = weaker reporter binding
# Test settings: Eterna round: R107; input ligand: tryptophan 2.4 mM
# output: number + unit

AAAUAAAUACAUGAGGAUCACCCAUGUGAAGGAGCGCCCGUUAGGGCAGGUAGGUCGCACAUGAAUAACUCCGCGCGAAAGCGCA [MAT - Exclusion Arginine A - Mod of Eli - D10] : 35.8 nM
ACAUUUAACUGAAGGAGCGUGAUAAACAUGAGGAUCACCCAUGUACCACAGAUUCUUAGAUCACAGGUAGGUCGCAGACUAAUGA [JR_ExcArginiB_Sub013] : 12.4 nM

Quick check: apparent KD of MS2 coat protein on MS2 coat protein, item AAAACUCAUGGCUUAUAUCCGUGUCUCGAAGGAGCGUACAGCGGUACAGGUAGGUCGCGAGACAUGAGGAUCACCCAUGUGUAAA [XArg-A 20 V1&2 original #dotplot2>1] ?
0.526 nM

Next entry: UAACAUGAGGAUCACCCAUGUAUAGUCGAUACCAGCUCAAGGGAGAGCCCUUGGCAGCGACACUGGUAUCCAUGGGUGUGGAUAC [(Ms2)-(Theo)-(T)'-(M)'-(T)''_Design3]
69.8 nM

====

# System: MS2 coat protein
# Protocol details: apparent KD of MS2 coat protein; designed switch direction (-1 OFF switch, 1 ON switch): -1; higher = weaker reporter binding
# Test settings: input ligand: FMN 200 uM
Parameter apparent KD of MS2 coat protein: see the listing below.

UCAGGUGCAGGAUAUACAUGAGGAUCACCCAUGUAGAUCAACCAGCGAUAGCUGGAAUGUAGAAGGGCACCUGA [E3/5-D2] (Eterna round: R97, puzzle: Exclusion 3) : 0.1 µM
CUCAUGUGUGAGGAUAUUAGAGCGAGCGUGUGAUAAGAAGGCACAACAUGAGGAUCACCCAUGUAGAGAGAGUG [Alacar 1st] (Eterna round: R97, puzzle: Exclusion 6) : 0.0289 µM
GACAUGAGGAUCACCCAUGUAACCUCAUGUAGGAAGGAGAGUAAGGAUAUAUAUGAAGGAAUGAAGUAGAAGGUGCAUAGAGAG [Default title] (Eterna round: R96, puzzle: Exclusion NG 3) : 0.539 µM

Record request: apparent KD of MS2 coat protein value, item CUUUUGUGAGGAUAUCAGUAGUAAAUAAAUAAUAUUACUACUGAGAAGGCACAUGAGGAUCACCCAUGUUCCUC [salish99_ex3_r3_083] (Eterna round: R96, puzzle: Exclusion 4)
0.385 µM

Next entry: UUUAUGUCAGGAUAUACAUGAGGAUCACCCAUGUAUAUCUUAAAGUAUACAUGGGAAUGUAGAAGGGACCUCCU [Omei Ex3 Pseudoloop 5] (Eterna round: R97, puzzle: Exclusion 3)
0.0438 µM

====

# System: MS2 coat protein
# Protocol details: apparent KD of MS2 coat protein; designed switch direction (-1 OFF switch, 1 ON switch): 1; higher = weaker reporter binding
# Test settings: input ligand: FMN 200 uM
Property: apparent KD of MS2 coat protein (nM)
Write the number in nM without appending the unit.

Known apparent KD of MS2 coat protein results, listed for orientation:
GCGAGCGUACUUGCUACAUGAGGAUCACCCAUGUUUAUUGGACAGGAUAUGGUACCGUUUCGGUACCAGAAGGGUCCACAUGUA [JL SSNG3 3.85] (Eterna round: R96, puzzle: Same State NG 3) : 124
GCUAGAAUUAACGCCUACAUGAGGAUCACCCAUGUAUGUAGGCAGGAUAUCGUUUGCAAAGCAAACGAGAAGGGCCUUACUAGC [Mat - Same State NG 3 - JL Mod - D31] (Eterna round: R96, puzzle: Same State NG 3) : 27.3
GGCGUAUAAACAUGAGGAUCACCCAUGUAGCGGAGACGCAAUGAGGAUAUCGAUGGGUUUCCCGUCGAGAAGGCGUGGGUCGCC [JL SSNG3 3.94] (Eterna round: R96, puzzle: Same State NG 3) : 20.6
UGGCUCAGACGAGGAUAUAUGUAAUAACAUGAGGAUCACCCAUGUGUCGAGCUUCGGCUCGACACAUAGAAGGCGUCUGAGCCU [SSNG2/2-A3] (Eterna round: R96, puzzle: Same State NG 2) : 12.7
AUUAUUAAUAUAGGAUAUGUAAAACAUGAGGAUCACCCAUGUGAUAUCGUGAGUAAGGAGAGAGAACAGAAGGAUAUUUUUUUU [JMF's solution 3] (Eterna round: R96, puzzle: Same State NG 2) : 40.6

Record request: apparent KD of MS2 coat protein value, item UAUGAAUUGCAAGGAUAUUGAUAACAUGAGGAUCACCCAUGUAAUUGAUCGAGUUAGAUCAGUUACAAGAAGGUGCUAUUGUUU [JR_SSNG2_Sub037] (Eterna round: R96, puzzle: Same State NG 2)
1810
